Test system: SMN2 minigene mRNA (SMN2-A minigene) in HEK293H cells
Assay: SMN2 minigene mRNA splicing RT-qPCR assay in cultured cells
Assay type: cell-based, human
Conditions: Homo sapiens, HEK293-H; concentration increasing full length SMN2 mRNA 1.5-fold relative to vehicle-treated cells; HEK293H cells with SMN2-A minigene, 24 hours, 7-point concentration data; read-out: EC1.5x for production of full length SMN2 mRNA
Quantity Kind: EC (1.5-fold increase)

Could you tell me which EC (1.5-fold increase) is on file for Cc1cn2nc(-c3cc(=O)n4cc(C5=CCN(C(C)C)CC5)ccc4n3)cc2c(C)n1 [Compound 355] ?
< 0.1 µM

Could you tell me which EC (1.5-fold increase) is on file for CCCN1CCN(c2ccc3nc(-c4cc5c(CC)nc(C)cn5n4)cc(=O)n3c2)CC1 [Compound 618] ?
< 0.1 µM

Could you tell me which EC (1.5-fold increase) is on file for Cc1cc(C2CCN(CCO)CC2)cn2c(=O)cc(-c3ccc4nn(C)cc4c3)nc12 [Compound 711] ?
< 0.1 µM

Could you tell me which EC (1.5-fold increase) is on file for CCN(CC)C1CCN(c2ccc3nc(-c4cc5c(C)nc(C)cn5n4)cc(=O)n3c2)CC1 [Compound 451] ?
< 0.1 µM

Recorded values, source patent US11753407B2.
